System: Aphis Fabae, Mixed Instar, Bean Aphid (BA)
test-description: Bean aphid (BA) foliar spray test, mortality after 2 days
Type: in vivo
recorded-conditions: rating scale

[
  {
    "molecule": "FC(F)(F)Oc1ccc(-c2ccnc(Oc3ccc(Cl)c(C(F)(F)F)c3)n2)cc1 [Compound 46]",
    "BA AD-FOLIAR 300 (ppm)": "B (B 45-75% kill)"
  },
  {
    "molecule": "FC(F)(F)Oc1cccc(-c2ccnc(Oc3cc(C(F)(F)F)cc(C(F)(F)F)c3)n2)c1 [Compound 42]",
    "BA AD-FOLIAR 300 (ppm)": "B (B 45-75% kill)"
  },
  {
    "molecule": "O=[N+]([O-])c1ccc(Oc2nccc(-c3cccc(C(F)(F)F)c3)n2)cc1C(F)(F)F [Compound 19]",
    "BA AD-FOLIAR 300 (ppm)": "A (A 0-45% kill)"
  },
  {
    "molecule": "Fc1cc(-c2ccnc(Oc3ccccc3)n2)cc(C(F)(F)F)c1 [Compound 54]",
    "BA AD-FOLIAR 300 (ppm)": "C (C 76-100% kill)"
  },
  {
    "molecule": "FC(F)(F)Oc1cccc(-c2ccnc(Oc3cccc(C(F)(F)F)c3)n2)c1 [Compound 38]",
    "BA AD-FOLIAR 300 (ppm)": "A (A 0-45% kill)"
  },
  {
    "molecule": "Fc1cc(-c2ccnc(Oc3cc(Cl)cc(Cl)c3)n2)cc(C(F)(F)F)c1 [Compound 59]",
    "BA AD-FOLIAR 300 (ppm)": "B (B 45-75% kill)"
  },
  {
    "molecule": "CCc1ccc(-c2ccnc(Oc3ccc(Cl)c(C(F)(F)F)c3)n2)cc1 [Compound 17]",
    "BA AD-FOLIAR 300 (ppm)": "C (C 76-100% kill)"
  }
]

Ref: patent US6440984B1
